Just for reference, PubChem BioAssay (NCI) is where these values come from.

System: SN12C renal
Assay: NCI tumour cell line growth inhibition, 48 h
VALUE TYPE: TGI (µM)
Reply with just the number (in µM).

Illustrative cases are given below, each with its answer.
| COMPOUND | VALUE TYPE | MEAS VALUE |
| --- | --- | --- |
| O=c1oc2ccccc2c(Cl)c1Cl | TGI | 16.8 |
| CCNCCNc1cc(-c2ccc(Cl)cc2)c(C#N)c2nc3ccccc3n12 | TGI | 3.85 |

Inquiry: Dear colleague, please send me the reported TGI for COC(=O)C1=C(O)C(C(=O)OC)[C@]2(O)[C@H](C(=O)OC)[C@H]1C[C@@H](c1ccc(Cl)cc1Cl)[C@H]2C(=O)OC (stereo not given in full) when you can.
Reply text: 22.2
